Measured MIC90 accompanies every entry in the list below.
- System: Methicillin-resistant Staphylococcus aureus (MRSA) isolates
- testDescription: MIC by broth microdilution (CLSI) against CAN-ICU MRSA isolates
- Format: cell-based
- conditions: Staphylococcus aureus; MRSA (n = 193); read-out: MIC90

// known answers, use as guide
# mol, quantityMeasured, testResult
data = [
    ("C[C@@H](O)[C@H]1C(=O)N2C(C(=O)O)=C(S[C@@H]3CN[C@H](C(=O)N(C)C)C3)[C@H](C)[C@H]12", "MIC90", "> 32 µg/mL"),
    ("COc1c(N2C[C@@H](C)C[C@H](N)C2)ccc2c(=O)c(C(=O)O)cn(C3CC3)c12", "MIC90", "> 4 µg/mL"),
]

Value of MIC90 reported for the compound CC(=O)NC[C@H]1CN(c2ccc(N3CCOCC3)c(F)c2)C(=O)O1 is 2 µg/mL

Kindly note the recorded MIC90 for C[C@H]1COc2c(N3CCN(C)CC3)c(F)cc3c(=O)c(C(=O)O)cn1c23 , which is > 32 µg/mL

====

Overview of recorded MIC for various compounds
- Test system: Staphylococcus aureus strains (MRSA, hVISA, VISA, VRSA, quinolone-resistant MRSA)
- testDescription: MIC by agar dilution against Staphylococcal strains (MRSA, hVISA, VISA, VRSA, quinolone-resistant MRSA)
- Type: cell-based
- conditions: Staphylococcus aureus, read-out: MIC Range, hVISA(2) + VISA (24) + VRSA (5)

# mol, MIC
data = [
    ("CCCCCCCCCC(=O)N[C@@H](Cc1c[nH]c2ccccc12)C(=O)N[C@H](CC(N)=O)C(=O)N[C@@H](CC(=O)O)C(=O)N[C@@H]1C(=O)NCC(=O)N[C@@H](CCCN)C(=O)N[C@@H](CC(=O)O)C(=O)N[C@H](C)C(=O)N[C@@H](CC(=O)O)C(=O)NCC(=O)N[C@H](CO)C(=O)N[C@@H]([C@H](C)CC(=O)O)C(=O)N[C@@H](CC(=O)c2ccccc2N)C(=O)O[C@@H]1C", "0.12 to 4 µg/mL"),
    ("COc1c(N2C[C@@H]3CCCN[C@@H]3C2)c(F)cc2c(=O)c(C(=O)O)cn(C3CC3)c12", "0.06 to 8 µg/mL"),
    ("CN(C)c1cc(NC(=O)CNC(C)(C)C)c(O)c2c1C[C@H]1C[C@H]3[C@H](N(C)C)C(O)=C(C(N)=O)C(=O)[C@@]3(O)C(O)=C1C2=O", "0.06 to 0.5 µg/mL"),
    ("CC(=O)NC[C@H]1CN(c2ccc(N3CCOCC3)c(F)c2)C(=O)O1", "0.5 to 2 µg/mL"),
]

The recorded MIC for entry COc1c(N2C[C@@H](C)C[C@H](N)C2)ccc2c(=O)c(C(=O)O)cn(C3CC3)c12 equals 0.06 to 2 µg/mL

====

Below: a set of entries, each annotated with reported MIC.
- Tested on: Staphylococcus aureus strains (MRSA, hVISA, VISA, VRSA, quinolone-resistant MRSA)
- testDescription: MIC by agar dilution against Staphylococcal strains (MRSA, hVISA, VISA, VRSA, quinolone-resistant MRSA)
- Assay type: cell-based
- conditions: Staphylococcus aureus, read-out: MIC Range, Quinolone-resistant MRSA (31)

Worked examples, 5 compounds total:
# mol, testResult
data = [
    ("CN[C@H](CC(C)C)C(=O)N[C@H]1C(=O)N[C@@H](CC(N)=O)C(=O)N[C@H]2C(=O)N[C@H]3C(=O)N[C@H](C(=O)N[C@H](C(=O)O)c4cc(O)cc(O)c4-c4cc3ccc4O)[C@H](O)c3ccc(c(Cl)c3)Oc3cc2cc(c3O[C@@H]2O[C@H](CO)[C@@H](O)[C@H](O)[C@H]2O[C@H]2C[C@](C)(N)[C@H](O)[C@H](C)O2)Oc2ccc(cc2Cl)[C@H]1O", "0.5 to 2 µg/mL"),
    ("COc1c(N2C[C@@H](C)C[C@H](N)C2)ccc2c(=O)c(C(=O)O)cn(C3CC3)c12", "0.5 to 4 µg/mL"),
    ("CC(=O)NC[C@H]1CN(c2ccc(N3CCOCC3)c(F)c2)C(=O)O1", "0.25 to 1 µg/mL"),
    ("COc1c(N2C[C@@H]3CCCN[C@@H]3C2)c(F)cc2c(=O)c(C(=O)O)cn(C3CC3)c12", "1 to 8 µg/mL"),
    ("CCCCCCCCCC(=O)N[C@@H](Cc1c[nH]c2ccccc12)C(=O)N[C@H](CC(N)=O)C(=O)N[C@@H](CC(=O)O)C(=O)N[C@@H]1C(=O)NCC(=O)N[C@@H](CCCN)C(=O)N[C@@H](CC(=O)O)C(=O)N[C@H](C)C(=O)N[C@@H](CC(=O)O)C(=O)NCC(=O)N[C@H](CO)C(=O)N[C@@H]([C@H](C)CC(=O)O)C(=O)N[C@@H](CC(=O)c2ccccc2N)C(=O)O[C@@H]1C", "0.12 to 1 µg/mL"),
]

Turning to the following compound.
// MIC value for CN(C)c1cc(NC(=O)CNC(C)(C)C)c(O)c2c1C[C@H]1C[C@H]3[C@H](N(C)C)C(O)=C(C(N)=O)C(=O)[C@@]3(O)C(O)=C1C2=O : 0.12 to 0.5 µg/mL

Ref: patent US8211909B2
